PARTICULARS: buffer; pH 7.4; 200.0 µM
ENDPOINT_LABEL: solubility kinetic

[[record]]
compound = "Cc1csc(NC(=O)c2cc[n+]([O-])cc2)n1"
reported_result = "> 0.0353 mg/mL"

[[record]]
compound = "COc1ccc(-c2noc(CCC(=O)NCC3CCCO3)n2)cc1 (centres undefined)"
reported_result = "> 0.0497 mg/mL"

[[record]]
compound = "COc1ccccc1CNC(=O)CN1C(=O)NC2(CCCCCC2)C1=O"
reported_result = "> 0.0539 mg/mL"

[[record]]
compound = "Cc1ccnc(SCC(=O)Nc2cccc(S(=O)(=O)N3CCOCC3)c2)n1"
reported_result = "> 0.0613 mg/mL"

[[record]]
compound = "CN=C(N)NC(=O)Nc1c(C)cccc1C.Cl"
reported_result = "> 0.0385 mg/mL"

[[record]]
compound = "NS(=O)(=O)c1ccc(CCNC(=O)c2ccncc2)cc1"
reported_result = "> 0.0458 mg/mL"

[[record]]
compound = "Cc1ccc(S(=O)(=O)CCC(=O)OC(C)c2nnc(-c3cccs3)o2)cc1 (centres undefined)"
reported_result = "> 0.061 mg/mL"

[[record]]
compound = "COC(OC)C1Nc2ccccc2C(=O)N1c1ccc(F)cc1 (centres undefined)"
reported_result = "> 0.0474 mg/mL"

[[record]]
compound = "Cc1cc(C(=O)OCC(=O)NC2CC2)c2ccccc2n1"
reported_result = "> 0.0426 mg/mL"

